TARGET_DESC: Lysine-specific demethylase 4A (Homo sapiens) (UniProt O75164)
Sequence (O75164 whole entry, looked up, the tested form may be a part): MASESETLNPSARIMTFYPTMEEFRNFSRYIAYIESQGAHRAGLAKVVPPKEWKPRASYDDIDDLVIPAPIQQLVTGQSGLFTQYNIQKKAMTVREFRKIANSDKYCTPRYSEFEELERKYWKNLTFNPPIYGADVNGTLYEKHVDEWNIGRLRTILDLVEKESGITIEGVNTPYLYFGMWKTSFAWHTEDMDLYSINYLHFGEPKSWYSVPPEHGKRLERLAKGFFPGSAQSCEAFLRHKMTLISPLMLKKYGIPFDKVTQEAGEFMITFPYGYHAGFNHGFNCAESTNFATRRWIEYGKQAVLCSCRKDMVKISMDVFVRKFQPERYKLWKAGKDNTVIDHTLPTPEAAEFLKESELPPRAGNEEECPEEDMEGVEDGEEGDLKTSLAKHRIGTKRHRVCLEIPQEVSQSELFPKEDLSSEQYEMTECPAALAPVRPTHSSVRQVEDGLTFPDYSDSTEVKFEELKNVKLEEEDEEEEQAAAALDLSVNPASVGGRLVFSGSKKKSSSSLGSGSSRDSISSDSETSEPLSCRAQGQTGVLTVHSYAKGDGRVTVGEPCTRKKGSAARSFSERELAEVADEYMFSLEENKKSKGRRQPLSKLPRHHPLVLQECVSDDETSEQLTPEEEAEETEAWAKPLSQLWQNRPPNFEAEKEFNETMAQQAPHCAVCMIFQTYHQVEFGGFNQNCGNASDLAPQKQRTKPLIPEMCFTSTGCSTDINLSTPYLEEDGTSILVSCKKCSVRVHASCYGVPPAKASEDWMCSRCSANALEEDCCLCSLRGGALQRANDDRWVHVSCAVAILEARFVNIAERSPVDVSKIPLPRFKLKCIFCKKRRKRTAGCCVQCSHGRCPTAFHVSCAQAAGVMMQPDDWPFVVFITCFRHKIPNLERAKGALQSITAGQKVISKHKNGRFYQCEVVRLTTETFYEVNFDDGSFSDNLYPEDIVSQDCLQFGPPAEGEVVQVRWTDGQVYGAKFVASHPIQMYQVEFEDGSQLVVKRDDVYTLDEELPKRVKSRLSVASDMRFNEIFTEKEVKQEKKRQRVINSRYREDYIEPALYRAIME
EXPERIMENTAL_DETAILS: qHTS Assay for Inhibitors of JMJD2A-Tudor Domain; note: nearly all actives have a fitted effect of over 50% in size; note: potency is the fitted concentration of half-maximal effect
CONDITION_DESCRIPTION: AlphaScreen JMJD2A-Tudor / H3K4me3 peptide binding; series mostly up to 114 µM
In all, about 390,000 compounds went through this assay and about 17,000 (4.4%) were called active. Another 8% or so got no clear call; they are omitted. This is one part of a sample in which actives are shown more often than they occur.
ASSAY_ENDPOINT: Potency

INSERT INTO assay_data (molecule, assay_endpoint, value_measured) VALUES
  ('CC(C)c1ccc(-n2c(O)c(/C=N/N3CCOCC3)c(=O)[nH]c2=S)cc1', 'Potency', 'inactive'),
  ('CC[N+](CC)(CC)CCCCCCCCCC[N+](CC)(CC)CC', 'Potency', 'inactive'),
  ('CN1CCN(C(=S)SCC(=O)Nc2ccc(Cl)cc2C(=O)c2ccccc2)CC1', 'Potency', '44.7 µM (active)'),
  ('CCOCCc1c(O)[nH]c(=S)[nH]c1=O', 'Potency', '79.4 µM (active)'),
  ('CC12CCC3C(CCC4CC(=O)CCC43C)C1CC(=NO)C2=O (stereo unspecified)', 'Potency', 'inactive');

Lab note: "S=P(c1ccccc1)(c1ccccc1)c1c(-c2ccccc2)[nH]c2ccccc12" gave Potency of inactive

// "CCCCCCCCCCCCn1ccc(=N)cc1" : Potency value = inactive

Field Potency (entry CC(=O)C1(O)CCC2C3CCC4=C(Cl)C(=O)CCC4(C)C3CCC21C (stereo unspecified) ) reads inactive

The value of Potency measured for the molecule "COc1ccccc1N=C1SCCCN1C" turned out to be 56.2 µM (active)

For "COC(=O)C1=C(c2cc3ccccc3s2)C[C@@H]2CC[C@H]1N2C(=O)NCc1cccc2ccccc12" the molecule record lists Potency as inactive

Reported Potency for "O=C1NC(=O)C(CCOc2ccccc2)(CCc2ccccc2)C(=O)N1" was inactive

Value of Potency reported for the molecule "O=C(COC(=O)c1ccccc1)Nc1ccc(Cl)cc1C(=O)c1ccccc1" is inactive

Potency reported for this molecule "Cc1cc(/C=C2/C(=O)NC(=O)N(Cc3ccco3)C2=O)c(C)n1-c1ccc(C(=O)O)cc1" : inactive

Please fill in: Potency reported for C[C@]12CCC3C(CC[C@H]4[C@H](O)[C@H](O)CC[C@]34C)C1CCC2=O (stereo partly specified) = inactive

Potency in this record for Oc1ccc2c3c1OC1[C@H](O)CC[C@@]4(O)[C@@H](C2)N(CC2CC2)CC[C@]314 (stereo partly specified) : inactive

###

TARGET_DESC: Lysine-specific demethylase 4A (Homo sapiens)
EXPERIMENTAL_DETAILS: qHTS Assay for Inhibitors of JMJD2A-Tudor Domain; note: nearly all actives have a fitted effect of over 50% in size
CONDITION_DESCRIPTION: AlphaScreen JMJD2A-Tudor / H3K4me3 peptide binding; series mostly up to 114 µM
The whole screen tested about 390,000 compounds, of which about 17,000 (4.4%) were called active. Inconclusive results (about 8%) are left out. The list comes from a sample in which actives are over-represented; it also holds close analogues and randomly drawn compounds.
ASSAY_ENDPOINT: outcome

INSERT INTO results (compound, assay_endpoint, value_measured) VALUES
  ('CNC(=O)O/N=C(\N)Cc1csc2ccc(Cl)cc12', 'outcome', 'inactive'),
  ('COC1C(O)C(C)OC(OC2CCC3(C=O)C(CCC4C3CCC3(C)C(C5=CC(=O)OC5)CCC43O)C2)C1O (stereo not given)', 'outcome', 'inactive'),
  ('COC(=O)C1=C(c2cccc(OCc3ccccc3)c2)C[C@@H]2CC[C@H]1N2C(=O)NCc1ccc(Br)cc1', 'outcome', 'inactive'),
  ('O=c1c2ccccc2nc(-c2ccc(Cl)cc2Cl)n1-c1ccncc1', 'outcome', 'inactive'),
  ('COc1cccc(OC)c1C(=O)NC(=S)N1C[C@H]2C[C@H](C1)c1cccc(=O)n1C2', 'outcome', 'inactive');

Summary for this compound, O=P1(Oc2ccccc2)CC(O)C(O)C(COCc2ccccc2)O1 (stereo not given) : outcome is inactive

Lab note: measured outcome of C[C@]12CC[C@H](O)CC1=C([N+](=O)[O-])CC1C2CC[C@@]2(C)C1CC[C@@H]2O (stereo not given in full) was inactive

Given item "C=C(C)C1(CCCC)C(=O)NC(=S)NC1=O" , the value recorded as its outcome is inactive

For this compound ( CSc1ccc(C(=O)C2CCCN(Cc3ccn[nH]3)C2)cc1 (stereo not given) ), measured outcome is inactive

// sample "CCC(=O)c1ccc(OCC(=O)N2CCN(CC(=O)Nc3ccc(C)cc3)CC2)cc1" , its outcome was inactive
